- Test system: NCI-H1915
- method notes: relative viability (nuclei count vs DMSO), 5 days (fraction); higher = more cells survive
- condition set: first compound 0.01581 µM
reported property: relative viability
Number only, no unit.

I am curious: what relative viability value has been reported for CC1(C)CCC(c2ccc(Cl)cc2)=C(CN2CCN(c3ccc(C(=O)NS(=O)(=O)c4ccc(N[C@H](CCN5CCOCC5)CSc5ccccc5)c(S(=O)(=O)C(F)(F)F)c4)cc3)CC2)C1 [Navitoclax] + CC(C)C[C@H](NC(=O)[C@H](Cc1ccccc1)NC(=O)c1cnccn1)B(O)O [Bortezomib] (partner 0.002 µM) ?
0.925

What about CC1(C)CCC(c2ccc(Cl)cc2)=C(CN2CCN(c3ccc(C(=O)NS(=O)(=O)c4ccc(N[C@H](CCN5CCOCC5)CSc5ccccc5)c(S(=O)(=O)C(F)(F)F)c4)cc3)CC2)C1 [Navitoclax] + Cc1cc(Nc2cc(N3CCN(C)CC3)nc(Sc3ccc(NC(=O)C4CC4)cc3)n2)n[nH]1 [Tozasertib] (partner 0.1 µM) ?
0.422

What about CC1(C)CCC(c2ccc(Cl)cc2)=C(CN2CCN(c3ccc(C(=O)NS(=O)(=O)c4ccc(N[C@H](CCN5CCOCC5)CSc5ccccc5)c(S(=O)(=O)C(F)(F)F)c4)cc3)CC2)C1 [Navitoclax] + C[C@@H](Oc1cc(-c2cnn(C3CCNCC3)c2)cnc1N)c1c(Cl)ccc(F)c1Cl [Crizotinib] (partner 1 µM) ?
0.881

What about CC1(C)CCC(c2ccc(Cl)cc2)=C(CN2CCN(c3ccc(C(=O)NS(=O)(=O)c4ccc(N[C@H](CCN5CCOCC5)CSc5ccccc5)c(S(=O)(=O)C(F)(F)F)c4)cc3)CC2)C1 [Navitoclax] + Cc1nc(Nc2ncc(C(=O)Nc3c(C)cccc3Cl)s2)cc(N2CCN(CCO)CC2)n1 [Dasatinib] (partner 0.075 µM) ?
0.333

What about CC1(C)CCC(c2ccc(Cl)cc2)=C(CN2CCN(c3ccc(C(=O)NS(=O)(=O)c4ccc(N[C@H](CCN5CCOCC5)CSc5ccccc5)c(S(=O)(=O)C(F)(F)F)c4)cc3)CC2)C1 [Navitoclax] + NC(=O)Nc1cc(-c2cccc(F)c2)sc1C(=O)N[C@H]1CCCNC1 [AZD7762] (partner 0.2 µM) ?
0.697

What about CC1(C)CCC(c2ccc(Cl)cc2)=C(CN2CCN(c3ccc(C(=O)NS(=O)(=O)c4ccc(N[C@H](CCN5CCOCC5)CSc5ccccc5)c(S(=O)(=O)C(F)(F)F)c4)cc3)CC2)C1 [Navitoclax] + CS(=O)(=O)CCNCc1ccc(-c2ccc3ncnc(Nc4ccc(OCc5cccc(F)c5)c(Cl)c4)c3c2)o1 [Lapatinib] (partner 2 µM) ?
0.953

What about CC1(C)CCC(c2ccc(Cl)cc2)=C(CN2CCN(c3ccc(C(=O)NS(=O)(=O)c4ccc(N[C@H](CCN5CCOCC5)CSc5ccccc5)c(S(=O)(=O)C(F)(F)F)c4)cc3)CC2)C1 [Navitoclax] + CCNC(=O)c1noc(-c2cc(C(C)C)c(O)cc2O)c1-c1ccc(CN2CCOCC2)cc1 [Luminespib] (partner 0.01 µM) ?
0.778

====

- System: NCI-H2347
- method notes: relative viability (nuclei count vs DMSO), 5 days (fraction); higher = more cells survive
- condition set: first compound 0.08 µM
Exercise: state measured relative viability for each of the compounds provided.
Number only, no unit.

I am curious: what relative viability value has been reported for C=C1C(=O)O[C@@H](CCCCCCCC)[C@@H]1C(=O)O [C-75] + N=C(N)NC(=N)NCCc1ccccc1 [Phenformin] (partner 250 µM) ?
0.506

What about Oc1nc(-c2ccc(C(F)(F)F)cc2)nc2c1CSCC2 [XAV939] + C[C@]1(O)C[C@@H](c2nc(-c3ccc4ccc(-c5ccccc5)nc4c3)c3c(N)nccn32)C1 [Linsitinib] (partner 1 µM) ?
1.08

What about C=C1C(=O)O[C@@H](CCCCCCCC)[C@@H]1C(=O)O [C-75] + C[C@]1(O)C[C@@H](c2nc(-c3ccc4ccc(-c5ccccc5)nc4c3)c3c(N)nccn32)C1 [Linsitinib] (partner 1 µM) ?
1.01
